// reported pIC50 for each item listed
tested on: 817829-284-R-J1-PDC complex spheroids, viability; test: Anticancer human tumor 817829-284-R-J1-PDC patient-derived colon adenocarcinoma cell line growth inhibition [CLK]; conditions: curve of first compound; second compound 0.1 µM
pIC50: −log10 of the molar value.

Some solved cases for reference:
{"COMPOUND": "C#Cc1c(F)ccc2cc(O)cc(-c3ncc4c(N5CC6CCC(C5)N6)nc(OCC56CCCN5CC(F)C6)nc4c3F)c12 (stereo not given) + CN1CCN(c2cc(C(=O)Nc3cc4cc(-c5cnn(C)c5)ccc4cn3)ccn2)CC1", "TEST_TARGET": "817829-284-R-J1-PDC complex spheroids, viability", "pIC50": "> 7.50"}
{"COMPOUND": "CCN1CCN(Cc2ccc(Nc3ncc(F)c(-c4cc(F)c5nc(C)n(C(C)C)c5c4)n3)nc2)CC1 + CN1CCN(c2cc(C(=O)Nc3cc4cc(-c5cnn(C)c5)ccc4cn3)ccn2)CC1", "TEST_TARGET": "817829-284-R-J1-PDC complex spheroids, viability", "pIC50": "> 8.50"}
{"COMPOUND": "CC(Nc1ccc2c(c1)OCCn1cc(N3C(=O)OCC3C(F)F)nc1-2)C(N)=O (stereo not given) + CNC(=O)c1ccc(Nc2nc(OC3CCCC3)c3c(-c4ccc5nc(C)oc5c4)c[nH]c3n2)c(OC)c1", "TEST_TARGET": "817829-284-R-J1-PDC complex spheroids, viability", "pIC50": "> 7.50"}
{"COMPOUND": "C=CC(=O)Nc1cc(Nc2nccc(-c3cn(C)c4ccccc34)n2)c(OC)cc1N(C)CCN(C)C + CN1CCN(c2cc(C(=O)Nc3cc4cc(-c5cnn(C)c5)ccc4cn3)ccn2)CC1", "TEST_TARGET": "817829-284-R-J1-PDC complex spheroids, viability", "pIC50": "> 9.02"}
{"COMPOUND": "COc1cccc2c1C(=O)c1c(O)c3c(c(O)c1C2=O)CC(O)(C(=O)CO)CC3OC1CC(N)C(O)C(C)O1 (stereo not given) + CN1CCN(c2cc(C(=O)Nc3cc4cc(-c5cnn(C)c5)ccc4cn3)ccn2)CC1", "TEST_TARGET": "817829-284-R-J1-PDC complex spheroids, viability", "pIC50": "> 7.50"}
{"COMPOUND": "C=C(F)C(=O)N1CCN(c2nc(OCC3CCCN3C)nc3c2CCN(c2cccc4cccc(Cl)c24)C3)CC1CC#N (stereo not given) + CNC(=O)c1ccc(Nc2nc(OC3CCCC3)c3c(-c4ccc5nc(C)oc5c4)c[nH]c3n2)c(OC)c1", "TEST_TARGET": "817829-284-R-J1-PDC complex spheroids, viability", "pIC50": "> 7.50"}
{"COMPOUND": "O=c1[nH]cc(F)c(=O)[nH]1 + CNC(=O)c1ccc(Nc2nc(OC3CCCC3)c3c(-c4ccc5nc(C)oc5c4)c[nH]c3n2)c(OC)c1", "TEST_TARGET": "817829-284-R-J1-PDC complex spheroids, viability", "pIC50": "> 7.50"}
{"COMPOUND": "COc1ccc([C@@H](O)c2cc(-c3ncnc4cc(N5CCOCC5)ccc34)c(F)cc2Cl)nn1 + CN1CCN(c2cc(C(=O)Nc3cc4cc(-c5cnn(C)c5)ccc4cn3)ccn2)CC1", "TEST_TARGET": "817829-284-R-J1-PDC complex spheroids, viability", "pIC50": "> 7.50"}

Note to self: pIC50 recorded for CC(Nc1ccc2c(c1)OCCn1cc(N3C(=O)OCC3C(F)F)nc1-2)C(N)=O (stereo not given) + CN1CCN(c2cc(C(=O)Nc3cc4cc(-c5cnn(C)c5)ccc4cn3)ccn2)CC1 was > 7.50

Value of pIC50 reported for the compound CCCS(=O)(=O)Nc1ccc(F)c(C(=O)c2c[nH]c3ncc(-c4ccc(Cl)cc4)cc23)c1F + CNC(=O)c1ccc(Nc2nc(OC3CCCC3)c3c(-c4ccc5nc(C)oc5c4)c[nH]c3n2)c(OC)c1 is > 7.50

###

test system: 817829-284-R-J1-PDC complex spheroids, viability; assay: Anticancer human tumor 817829-284-R-J1-PDC cell line growth inhibition [CLK]; details: second compound 0.316 µM; first compound 10 µM; stronger effect = lower value;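 further: spheroids exposed to the agents for seven days before readout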
REPORTED_PROPERTY: viability, T/C (%)
Please reply with the bare figure in % and do not write the unit itself.

{"COMPOUND": "Nc1ccn(C2OC(CO)C(O)C2(F)F)c(=O)n1 (stereo not drawn) + CN1CCN(c2cc(C(=O)Nc3cc4cc(-c5cnn(C)c5)ccc4cn3)ccn2)CC1", "viability, T/C (%)": 0.9}

Entry O=c1[nH]cc(F)c(=O)[nH]1 + CNC(=O)c1ccc(Nc2nc(OC3CCCC3)c3c(-c4ccc5nc(C)oc5c4)c[nH]c3n2)c(OC)c1 , tested on 817829-284-R-J1-PDC complex spheroids, viability, has a reported viability, T/C of 12.6

Measured on 817829-284-R-J1-PDC complex spheroids, viability, COC1C=CCC(C)C(C)S(=O)(=O)NC(=O)c2ccc3c(c2)N(CC2CCC21)CC1(CCCc2cc(Cl)ccc21)CO3 (stereo not drawn) + CNC(=O)c1ccc(Nc2nc(OC3CCCC3)c3c(-c4ccc5nc(C)oc5c4)c[nH]c3n2)c(OC)c1 has a documented viability, T/C of 4.97

###

tested on: 817829-284-R-J1-PDC complex spheroids, viability; test: Anticancer human tumor 817829-284-R-J1-PDC cell line growth inhibition [CLK]; details: second compound 0.316 µM; first compound 0.1 µM; active = viability on the fitted dose curve at most 10% of control; inactive = the rest;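 further: spheroids exposed to the agents for seven days before readout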
Could you please pick one outcome from this set? YES (active), NO (inactive)

Exam item: What is the recorded call for this molecule in the test? COc1ccc([C@@H](O)c2cc(-c3ncnc4cc(N5CCOCC5)ccc34)c(F)cc2Cl)nn1 + CN1CCN(c2cc(C(=O)Nc3cc4cc(-c5cnn(C)c5)ccc4cn3)ccn2)CC1
Marked response: YES

Exam item: Could you kindly confirm the outcome this assay logged for O=C(c1cc(Cc2n[nH]c(=O)c3ccccc23)ccc1F)N1CCN(C(=O)C2CC2)CC1 + CN1CCN(c2cc(C(=O)Nc3cc4cc(-c5cnn(C)c5)ccc4cn3)ccn2)CC1 ?
Marked response: YES

Exam item: In this assay, the call recorded for Cn1ncnc1[C@H]1c2n[nH]c(=O)c3cc(F)cc(c23)N[C@@H]1c1ccc(F)cc1 + CNC(=O)c1ccc(Nc2nc(OC3CCCC3)c3c(-c4ccc5nc(C)oc5c4)c[nH]c3n2)c(OC)c1 was what?
Marked response: NO

Exam item: Please let me know the test result on file for CCc1c2c(nc3ccc(O)cc13)-c1cc3c(c(=O)n1C2)COC(=O)[C@]3(O)CC + CNC(=O)c1ccc(Nc2nc(OC3CCCC3)c3c(-c4ccc5nc(C)oc5c4)c[nH]c3n2)c(OC)c1 .
Marked response: YES

Exam item: Please state the recorded outcome for this molecule: CCc1c2c(nc3ccc(O)cc13)-c1cc3c(c(=O)n1C2)COC(=O)[C@]3(O)CC + CN1CCN(c2cc(C(=O)Nc3cc4cc(-c5cnn(C)c5)ccc4cn3)ccn2)CC1
Marked response: YES

###

system: 817829-284-R-J1-PDC complex spheroids, viability; assay: Anticancer human tumor 817829-284-R-J1-PDC cell line growth inhibition [CLK]; settings: second compound 0.0316 µM; first compound 0.316 µM; active means viability on the fitted dose curve at most 10% of control; inactive means the rest;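 further: spheroids exposed to the agents for seven days before readout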
Valid outcomes are listed here; reply with one: active, inactive

Examples from the recorded data:
{"MOLECULE": "O=C(c1cc(Cc2n[nH]c(=O)c3ccccc23)ccc1F)N1CCN(C(=O)C2CC2)CC1 + CN1CCN(c2cc(C(=O)Nc3cc4cc(-c5cnn(C)c5)ccc4cn3)ccn2)CC1", "TEST_TARGET": "817829-284-R-J1-PDC complex spheroids, viability", "CLASSIFICATION": "inactive"}
{"MOLECULE": "C=CC(=O)N1CCN(c2nc(=O)n(-c3c(C)ccnc3C(C)C)c3nc(-c4c(O)cccc4F)c(F)cc23)C(C)C1 (centres undefined) + CNC(=O)c1ccc(Nc2nc(OC3CCCC3)c3c(-c4ccc5nc(C)oc5c4)c[nH]c3n2)c(OC)c1", "TEST_TARGET": "817829-284-R-J1-PDC complex spheroids, viability", "CLASSIFICATION": "inactive"}
{"MOLECULE": "CCCS(=O)(=O)Nc1ccc(F)c(C(=O)c2c[nH]c3ncc(-c4ccc(Cl)cc4)cc23)c1F + CN1CCN(c2cc(C(=O)Nc3cc4cc(-c5cnn(C)c5)ccc4cn3)ccn2)CC1", "TEST_TARGET": "817829-284-R-J1-PDC complex spheroids, viability", "CLASSIFICATION": "inactive"}

Exam item: Can you look up the reported call for COc1c(OCCCN2CCOCC2)ccc2c3n(c(=NC(=O)c4cnc(N)nc4)nc12)CCN3 + CNC(=O)c1ccc(Nc2nc(OC3CCCC3)c3c(-c4ccc5nc(C)oc5c4)c[nH]c3n2)c(OC)c1 for me?
Marked response: active
